Biological target: recombinant human GST-Syk (Homo sapiens)
Construct: purchased Carna Biosciences 08-176
Assay: Homogeneous Time-Resolved Fluorescence (HTRF) assay for the recombinant human Syk enzyme
Format: biochemical
Conditions: recombinant human GST-Syk 5 pM, ATP 25 μM, 10-dose titration 10 μM to 0.508 nM; read-out: rhSYK Activity IC50
Description: Syk inhibition may be determined using the following assay protocol: Homogeneous Time-Resolved Fluorescence (HTRF) assay for the recombinant human Syk enzyme: A recombinant GST-hSyk fusion protein was used to measure potency of compounds to inhibit human Syk activity. […] Final volume of the reaction was 10 μL. […] The resulting HTRF signal was measured after 30 minutes on an EnVision (Perkin-Elmer) reader using a time-resolved fluorescence protocol.
pIC50: −log10 of the molar value.
outcome_measure: pIC50

The examples below pair each entry with its known result.
INSERT INTO measurements (compound, system, outcome_measure, result_value) VALUES
  ('Cc1cc(Nc2cc(C(F)(F)F)ccn2)nc(-c2cn(C[C@]3(O)C[C@H](C#N)C3)nn2)c1', 'recombinant human GST-Syk (Homo sapiens)', 'pIC50', 9.15),
  ('Cc1cc(Nc2cc(C(F)(F)F)ccn2)nc(-c2cn([C@@H](C)C(=O)NCC(=O)O)nn2)c1', 'recombinant human GST-Syk (Homo sapiens)', 'pIC50', 8.05),
  ('Cc1cc(Nc2cc(C(F)F)ccn2)nc(-c2cn(C3CCCC(O)C3O)nn2)c1 (stereo not shown) [Example 21.37]', 'recombinant human GST-Syk (Homo sapiens)', 'pIC50', 8.72),
  ('Cc1cc(Nc2cc(C(F)(F)F)ccn2)nc(-c2cn(C3CCCC(O)C3O)nn2)c1 (stereo not shown)', 'recombinant human GST-Syk (Homo sapiens)', 'pIC50', 8.48),
  ('Cc1cc(Nc2cc(C(F)(F)F)ccn2)nc(-c2cn(C3CCC(C(=O)O)c4ccccc43)nn2)c1 (stereo not shown)', 'recombinant human GST-Syk (Homo sapiens)', 'pIC50', 7.80),
  ('Cc1cc(Nc2ncc(F)c(C(F)F)n2)cc(-c2cn(CC(C)(O)C(C)(C)O)nn2)c1 (stereo not shown) [Example 21.15]', 'recombinant human GST-Syk (Homo sapiens)', 'pIC50', 7.32);

A = Cc1cc(Nc2nccc(C(F)(F)F)n2)cc(-c2cn(CCO)nn2)c1
B = Cc1cc(Nc2cc(C(F)(F)F)ccn2)nc(-c2cn(C(C)C(O)CC#N)nn2)c1 (stereo not shown) [Example 4.10]
IN: Please indicate which entry, A or B , has the lower recorded pIC50 value. API: response body contains the label of the selected item.
OUT: A
(A: 7.83, B: 8.24)

a = Cc1cc(Nc2cc(C(F)(F)F)ccn2)nc(-c2cn([C@H](C)C(=O)NCC(N)=O)nn2)c1
b = Cc1cc(Nc2cc(C(F)(F)F)ccn2)nc(-c2cn(CC3=CCCCC3)nn2)c1
c = COC(=O)C1CCC(n2cc(-c3cc(C)cc(Nc4nccc(C(F)(F)F)n4)c3)nn2)CC1 (mixture of isomers)
d = Cc1cc(Nc2nccc(C(F)(F)F)n2)cc(-c2cn(CC3(O)CCOCC3)nn2)c1
IN: Hey, quick one: sort these by pIC50, low to high? Field: ranking. Enter the labels in the order requested.
OUT: c, b, d, a
(c: 6.37, b: 7.10, d: 7.32, a: 7.64)

I = C/C=C/Cn1cc(-c2cc(C)cc(Nc3cc(C(F)(F)F)ccn3)n2)nn1
II = Cc1cc(Nc2nccc(C(F)(F)F)n2)cc(-c2cn(CC#N)nn2)c1
IN: Smaller pIC50 value, I vs II ? Answer by stating the label of the chosen item.
OUT: II

* * *

Target: recombinant human GST-Syk (Homo sapiens, UniProt P43405)
Construct: purchased Carna Biosciences 08-176
Assay: Homogeneous Time-Resolved Fluorescence (HTRF) assay for the recombinant human Syk enzyme
Format: biochemical
Details: recombinant human GST-Syk 5 pM, ATP 25 μM, 10-dose titration 10 μM to 0.508 nM; read-out: rhSYK Activity IC50
pIC50: −log10 of the molar value.
outcome_measure: pIC50

INSERT INTO assay_data (compound, result_value) VALUES
  ('COc1nc(Nc2cc(C)cc(-c3cn(CC(C)(O)C(C)(C)O)nn3)c2)ncc1Cl (stereo not shown) [Example 21.27]', 7.38);

A = Cc1cc(Nc2ncc(F)c(C(F)F)n2)cc(-c2cn(CC3OC(=O)NC3C)nn2)c1 (single isomer, unassigned) [Example 7.38]
B = Cc1cc(Nc2nccc(C(F)F)n2)cc(-c2cn(C3CCCC(C)(O)C3O)nn2)c1 (single isomer, unassigned) [Example 29.1]
C = Cc1cc(Nc2cc(C(F)(F)F)ccn2)nc(-c2cn([C@H](C)C(N)=O)nn2)c1 [Example 1.23]
IN: hey, can you rank those compounds up there by pIC50? biggest number first please I'd appreciate it if you listed the labels in the requested order.
OUT: C, B, A
(C: 8.17, B: 7.71, A: 7.48)

* * *

Molecular target: recombinant human GST-Syk (Homo sapiens, UniProt P43405)
Construct: purchased Carna Biosciences 08-176
Experiment: Homogeneous Time-Resolved Fluorescence (HTRF) assay for the recombinant human Syk enzyme
Assay type: biochemical
Conditions: recombinant human GST-Syk 5 pM, ATP 25 μM, 10-dose titration 10 μM to 0.508 nM; read-out: rhSYK Activity IC50
Procedure: Syk inhibition may be determined using the following assay protocol: Homogeneous Time-Resolved Fluorescence (HTRF) assay for the recombinant human Syk enzyme: A recombinant GST-hSyk fusion protein was used to measure potency of compounds to inhibit human Syk activity. […] Final volume of the reaction was 10 μL. […] The resulting HTRF signal was measured after 30 minutes on an EnVision (Perkin-Elmer) reader using a time-resolved fluorescence protocol.
pIC50: −log10 of the molar value.
outcome_measure: pIC50

Below are worked cases with known answers.
INSERT INTO results (compound, system, outcome_measure, result_value) VALUES
  ('COC(=O)c1ccc(C(O)Cn2cc(-c3cc(C)cc(Nc4cc(C(F)(F)F)ccn4)n3)nn2)cc1 (stereo not drawn) [Example 4.17]', 'recombinant human GST-Syk (Homo sapiens, UniProt P43405)', 'pIC50', 7.58),
  ('Cc1cc(Nc2nccc(C(F)F)n2)cc(-c2cn(C3CCCC(O)C3O)nn2)c1 (single isomer, unassigned) [Example 25.2]', 'recombinant human GST-Syk (Homo sapiens, UniProt P43405)', 'pIC50', 8.14),
  ('Cc1cc(Nc2cc(C(F)(F)F)ccn2)nc(-c2cn(C3CCC(C(=O)O)CC3)nn2)c1 (mixture of isomers) [Example 5.46]', 'recombinant human GST-Syk (Homo sapiens, UniProt P43405)', 'pIC50', 8.31),
  ('Cc1cc(Nc2nccc(C(F)F)n2)cc(-c2cn(CC3OC(=O)NC34CC4)nn2)c1 (single isomer, unassigned) [Example 7.18]', 'recombinant human GST-Syk (Homo sapiens, UniProt P43405)', 'pIC50', 7.93),
  ('Cc1cc(Nc2cc(C(F)(F)F)ccn2)nc(-c2cn(-c3ncccc3Cl)nn2)c1 [Example 6.1]', 'recombinant human GST-Syk (Homo sapiens, UniProt P43405)', 'pIC50', 7.39);

A = CCCC(C(=O)OCC)n1cc(-c2cc(C)cc(Nc3cc(C(F)(F)F)ccn3)n2)nn1 (racemic) [Example 5.27]
B = COC(=O)CCn1cc(-c2cc(C)cc(Nc3cc(C(F)(F)F)ccn3)n2)nn1 [Example 5.10]
IN: Hello, I am sorting some records. Could you say if A or B has the smaller pIC50 value? Bench note: the answer is the label of the chosen record.
OUT: A

1 = Cc1cc(Nc2cc(C(F)(F)F)ccn2)nc(-c2cn(C3CN(C(=O)C(C)O)CC3O)nn2)c1 (single isomer, unassigned) [Example 13.2]
2 = Cc1cc(Nc2cc(C(C)C)ccn2)nc(-c2cn(C(C)c3ccc(C(=O)O)cc3)nn2)c1 (stereo not drawn) [Example 2.13]
3 = Cc1cc(Nc2cc(C(F)(F)F)ccn2)nc(-c2cn(C[C@@H]3CNC(=O)O3)nn2)c1 [Example 5.103]
IN: Put the items in order so that reported pIC50 rises from first to last. Enter labels, ranked according to the request.
OUT: 1, 2, 3
(1: 7.63, 2: 8.08, 3: 8.72)

* * *

Target: recombinant human GST-Syk (Homo sapiens, UniProt P43405)
Construct: purchased Carna Biosciences 08-176
Assay: Homogeneous Time-Resolved Fluorescence (HTRF) assay for the recombinant human Syk enzyme
Type: biochemical
Conditions: recombinant human GST-Syk 5 pM, ATP 25 μM, 10-dose titration 10 μM to 0.508 nM; read-out: rhSYK Activity IC50
outcome_measure: IC50 (nM)

INSERT INTO measurements (molecule, system, result_value) VALUES
  ('Cc1cc(Nc2cc(C(F)(F)F)ccn2)nc(-c2cn(C3CCC(C(=O)O)C(C)(C)C3)nn2)c1 (single isomer, unassigned) [Example 3.8]', 'recombinant human GST-Syk (Homo sapiens, UniProt P43405)', 9.8);

1 = COC(=O)[C@@H]1CCCN1C(=O)[C@H](C)n1cc(-c2cc(C)cc(Nc3cc(C(F)(F)F)ccn3)n2)nn1
2 = Cc1cc(Nc2cc(C(F)(F)F)ccn2)nc(-c2cn(C(C)c3ccc(C(N)=O)cc3)nn2)c1 (stereo not shown)
3 = Cc1cc(Nc2nccc(C(F)(F)F)n2)cc(-c2cn(CCS(C)(=O)=O)nn2)c1
IN: Would you mind ranking these molecules by ascending IC50? The response must list the labels following the requested ordering.
OUT: 2, 3, 1
(2: 13.3 nM, 3: 46.4 nM, 1: 423 nM)
